# Species: Rattus norvegicus
# ASSAY INFO: DrugMatrix - Regimen: Daily Repeat
# Type: toxicity, organism-based, Sprague-Dawley
# Design: regimen Daily Repeat, gender Male, age 6-8 weeks
# APPLIED CONDITIONS: in vivo, po, 0 mg/kg, 72 h, tissue Blood, route oral GAVAGE, dose level Control, time 3 day, vehicle .5 % CMC
EXPERIMENTAL READOUT: ABSOLUTE MONOCYTE (CELLS/uL)
Provide only the numeric value, understood in CELLS/uL.

stdin: Provide measured ABSOLUTE MONOCYTE value, entry: NCC(CC(=O)O)c1ccc(Cl)cc1 (centres undefined)
stdout: 180.83

stdin: Provide measured ABSOLUTE MONOCYTE value, entry: CCN1CCCC1CNC(=O)c1cc(S(N)(=O)=O)ccc1OC (centres undefined) [SULPIRIDE]
stdout: 160.33

stdin: Provide measured ABSOLUTE MONOCYTE value, entry: `O=C(O)CCc1nc(-c2ccccc2)c(-c2ccccc2)o1`
stdout: 160.33

stdin: Provide measured ABSOLUTE MONOCYTE value, entry: `NC(=O)CN1CCCC1=O`
stdout: 183.17
